In this section, each of the compounds is paired with its reported Change in size (nm) vs. T0, T = 2 weeks.
experiment: Stability of blank-LNP at 2-8° C. (particle size, PDI); type: physicochemical; conditions: blank-LNP 48/40.5/10/1.5 mol %, 2 weeks

CCCCCCCCOC/C=C\COC(=O)CCCCCCCCC(CCCCCCCCC(=O)OC(CCCCCCCC)CCCCCCCC)OC(=O)CCCN(C)C (centres unmarked)
+8 nm
CCCCCC/C=C/COC(=O)CCCCCCCCC(CCCCCCCCC(=O)OC/C=C/CCCCCC)OC(=O)CCCN(C)C
+7 nm
CCCCCCCCCCC(CCCCCCCCCC)C(=O)OCCCCCCOc1ccc(OCCCCCCOC(=O)C(CCCCCCCCCC)CCCCCCCCCC)c(COC(=O)CCCN(C)C)c1
−3 nm
CCCCCCCCCOC(=O)CCCCCCCOc1ccc(OCCCCCCCC(=O)OC(CCCCCCCC)CCCCCCCC)c(COC(=O)CCCN(C)C)c1
−1 nm
CCCCCCCCCOC(=O)CCCCCCCOc1ccc(OCCCCCCCC(=O)OC(CCCCCCCC)CCCCCCCC)cc1COC(=O)CCCN(C)C
−9 nm

**Query** Change in size (nm) vs. T0, T = 2 weeks for CC/C=C/CCCC(CCC/C=C/CC)OC(=O)CCCCCCCC(CCCCCCCC(=O)OC/C=C/CCCCCC)COC(=O)CCCN(C)C (centres unmarked) ?
**Result** +16 nm

**Query** Same again, this time with CCCCCCOCCC/C=C/COC(=O)CCCCCCCCC(CCCCCCCCC(=O)OC/C=C/CCCOCCCCCC)OC(=O)CCCN(C)C
**Result** +42 nm

**Query** Same again, this time with CCCCCCCCCOC(=O)CCCCCCCOc1ccc(OCCCCCCCC(=O)OCCCCCCCCC)c(COC(=O)CCCN(C)C)c1
**Result** +2 nm

###

Test: Stability of blank-LNP at 2-8° C. (particle size, PDI)
Type: physicochemical
Details: blank-LNP 48/40.5/10/1.5 mol %, 2 weeks
Description: Lipid nanoparticles (LNPs) were formed or formulated by rapid mixing of an ethanol phase and an aqueous phase using a microfluidic device. The aqueous phase included a 50 mM citrate buffer (pH 5.5). […] A series of ionizable lipids were evaluated. […] Each generated blank-LNP formulation was added to and mixed with lyophilized S2P RNA, altogether yielding a series of “ready-to-use” S2P RNA test items containing the different ionizable lipids. […]
Param label: returns Condition met when PDI, T = 2 weeks < 0.06, returns Condition not met otherwise, including exact equality.

Solved cases (5 shown):
CCCCCCCCCOC(=O)CCCCCCCOc1ccc(OCCCCCCCC(=O)OC(CCCCCCCC)CCCCCCCC)c(COC(=O)CCCN(C)C)c1
Condition not met
CC/C=C/CCCC(CCC/C=C/CC)OC(=O)CCCCCCCC(CCCCCCCC(=O)OC/C=C/CCCCCC)COC(=O)CCCN(C)C (centres unmarked)
Condition not met
CCCCCC/C=C/COC(=O)CCCCCCCCC(CCCCCCCCC(=O)OC/C=C/CCCCCC)OC(=O)CCCN(C)C
Condition met
CCCCCCCCCOC(=O)CCCCCCCOc1ccc(OCCCCCCCC(=O)OCCCCCCCCC)c(COC(=O)CCCN(C)C)c1
Condition not met
CCCCCCCCCCC(CCCCCCCCCC)C(=O)OCCCCCCOc1ccc(OCCCCCCOC(=O)C(CCCCCCCCCC)CCCCCCCCCC)c(COC(=O)CCCN(C)C)c1
Condition not met

**Query** Problem: For the compound CCCCCCOCCC/C=C/COC(=O)CCCCCCCCC(CCCCCCCCC(=O)OC/C=C/CCCOCCCCCC)OC(=O)CCCN(C)C , is PDI, T = 2 weeks under 0.06?
**Result** Condition met

###

assay: Stability of blank-LNP at 2-8° C. (particle size, PDI); type: physicochemical; conditions: blank-LNP 48/40.5/10/1.5 mol %, 1 month
In this section, each of the compounds is paired with its reported PDI, T = 1 month.

CCCCCC/C=C/COC(=O)CCCCCCCCC(CCCCCCCCC(=O)OC/C=C/CCCCCC)OC(=O)CCCN(C)C
0.10
CC/C=C/CCCC(CCC/C=C/CC)OC(=O)CCCCCCCC(CCCCCCCC(=O)OC/C=C/CCCCCC)COC(=O)CCCN(C)C (stereo not shown)
0.21
CCCCCCOCCC/C=C/COC(=O)CCCCCCCCC(CCCCCCCCC(=O)OC/C=C/CCCOCCCCCC)OC(=O)CCCN(C)C
0.06

As a next step, examine the compound that follows.
**Query** PDI, T = 1 month for CCCCCCCCCCC(CCCCCCCCCC)C(=O)OCCCCCCOc1ccc(OCCCCCCOC(=O)C(CCCCCCCCCC)CCCCCCCCCC)c(COC(=O)CCCN(C)C)c1 ?
**Result** 0.17

###

test system: Vero E6 cells; format: cell-based; conditions: ready-to-use S2P RNA, 4 μg, 48 hours post transfection; 48/40.5/10/1.5 mol %
recordedMetric: RBD expression in Vero E6 cells (ng/mL)
Please reply with the bare figure in ng/mL and do not write the unit itself.

Past entries and their recorded results:
CCCCCC/C=C/COC(=O)CCCCCCCCC(CCCCCCCCC(=O)OC/C=C/CCCCCC)OC(=O)CCCN(C)C
0.16
CC/C=C/CCCC(CCC/C=C/CC)OC(=O)CCCCCCCC(CCCCCCCC(=O)OC/C=C/CCCCCC)COC(=O)CCCN(C)C (stereo not drawn)
0.25
CCCCCCCCCOC(=O)CCCCCCCOc1ccc(OCCCCCCCC(=O)OCCCCCCCCC)c(COC(=O)CCCN(C)C)c1
0.97

As a next step, examine the compound that follows.
**Query** RBD expression in Vero E6 cells for CCCCCCOCCC/C=C/COC(=O)CCCCCCCCC(CCCCCCCCC(=O)OC/C=C/CCCOCCCCCC)OC(=O)CCCN(C)C ?
**Result** 0.20

###

experiment: Stability of blank-LNP at 2-8° C. (particle size, PDI); type: physicochemical; conditions: blank-LNP 48/40.5/10/1.5 mol %, 1 month
In this section, each of the compounds is paired with its reported Size, T = 1 month.
Please reply with the bare figure in nm and do not write the unit itself.

Past entries and their recorded results:
CCCCCCCCCOC(=O)CCCCCCCOc1ccc(OCCCCCCCC(=O)OC(CCCCCCCC)CCCCCCCC)c(COC(=O)CCCN(C)C)c1
93
CCCCCCCCCCC(CCCCCCCCCC)C(=O)OCCCCCCOc1ccc(OCCCCCCOC(=O)C(CCCCCCCCCC)CCCCCCCCCC)c(COC(=O)CCCN(C)C)c1
90

As a next step, examine the compound that follows.
**Query** Size, T = 1 month for CCCCCCCCCOC(=O)CCCCCCCOc1ccc(OCCCCCCCC(=O)OC(CCCCCCCC)CCCCCCCC)cc1COC(=O)CCCN(C)C ?
**Result** 88

###

assay: Stability of blank-LNP at 2-8° C. (particle size, PDI); format: physicochemical; details: blank-LNP 48/40.5/10/1.5 mol %, 2 weeks
recordedMetric: Size, T = 2 weeks (nm)
Please reply with the bare figure in nm and do not write the unit itself.

Past entries and their recorded results:
CCCCCCCCCOC(=O)CCCCCCCOc1ccc(OCCCCCCCC(=O)OC(CCCCCCCC)CCCCCCCC)cc1COC(=O)CCCN(C)C
79
CCCCCCCCCCC(CCCCCCCCCC)C(=O)OCCCCCCOc1ccc(OCCCCCCOC(=O)C(CCCCCCCCCC)CCCCCCCCCC)c(COC(=O)CCCN(C)C)c1 [Lipid #8]
83
CCCCCCCCOC/C=C\COC(=O)CCCCCCCCC(CCCCCCCCC(=O)OC(CCCCCCCC)CCCCCCCC)OC(=O)CCCN(C)C (centres unmarked) [Lipid #12]
93
CCCCCCOCCC/C=C/COC(=O)CCCCCCCCC(CCCCCCCCC(=O)OC/C=C/CCCOCCCCCC)OC(=O)CCCN(C)C [Lipid #11]
207

**Query** Size, T = 2 weeks for CC/C=C/CCCC(CCC/C=C/CC)OC(=O)CCCCCCCC(CCCCCCCC(=O)OC/C=C/CCCCCC)COC(=O)CCCN(C)C (centres unmarked) [Lipid #10] ?
**Result** 107

**Query** Same again, this time with CCCCCCCCCOC(=O)CCCCCCCOc1ccc(OCCCCCCCC(=O)OCCCCCCCCC)c(COC(=O)CCCN(C)C)c1 [Lipid #2]
**Result** 122

**Query** Same again, this time with CCCCCCCCCOC(=O)CCCCCCCOc1ccc(OCCCCCCCC(=O)OC(CCCCCCCC)CCCCCCCC)c(COC(=O)CCCN(C)C)c1 [Lipid #5]
**Result** 90

**Query** Same again, this time with CCCCCC/C=C/COC(=O)CCCCCCCCC(CCCCCCCCC(=O)OC/C=C/CCCCCC)OC(=O)CCCN(C)C [Lipid #9]
**Result** 214

FYI, the data here is from patent US20240390484A1.
